Attribute: IC50 at 72 h
Test: Cytotoxicity against human L02 cells assessed as inhibition of cell growth incubated for 72 hrs by CCK-8 assay
Type: toxicity, cell-based
Write the value in µM as a bare number.

# count of solved cases: 2
>>> readout_number("CCOC(=O)C1CCN(CC(=O)Nc2ccc(Nc3ncc(Cl)c(Nc4ccccc4S(=O)(=O)C(C)C)n3)cc2)CC1")
1.22
>>> readout_number("CCC(C)C(CO)NC(=O)C1CCN(Cc2ccc(Nc3ncc(Cl)c(Nc4ccccc4S(=O)(=O)C(C)C)n3)cc2)CC1 (stereo not drawn)")
1.39

Problem: Bench note: what IC50 at 72 h did CC(C)S(=O)(=O)c1ccccc1Nc1nc(Nc2ccc(NC(=O)CN3CCC(C(=O)O)CC3)cc2)ncc1Cl show?
Solution: 2.32

Problem: Ok, now CC(C)S(=O)(=O)c1ccccc1Nc1nc(Nc2ccc(N3CCC(C(=O)O)CC3)cc2)ncc1Cl
Solution: 1.51

Problem: CCOC(=O)C1CCN(c2ccc(Nc3ncc(Cl)c(Nc4ccccc4S(=O)(=O)C(C)C)n3)cc2)CC1 ?
Solution: 0.981

Problem: Here is the next compound: CC(C)S(=O)(=O)c1ccccc1Nc1nc(Nc2ccc(CN3CCC(CO)CC3)cc2)ncc1Cl
Solution: 0.192

Problem: // same read-out, input: COC(=O)CCCCCNC(=O)C1CCN(CC(=O)Nc2ccc(Nc3ncc(Cl)c(Nc4ccccc4S(=O)(=O)C(C)C)n3)cc2)CC1
Solution: 7.01

Problem: Try this compound next: CCOC(=O)C1CCN(Cc2ccc(Nc3ncc(Cl)c(Nc4ccccc4S(=O)(=O)C(C)C)n3)cc2)CC1
Solution: 0.453

---

Test: Cytotoxicity against human L02 cells assessed as inhibition of cell growth incubated for 72 hrs by CCK-8 assay
Type: toxicity, cell-based
Examples of compounds with documented log10(IC50 at 72 h) follow.
Give log10 of IC50 at 72 h, with IC50 at 72 h taken in nM.

>>> readout_number("CCOP(=O)(Cc1ccc(Nc2ncc(Cl)c(Nc3ccccc3S(=O)(=O)C(C)C)n2)cc1)OCC")
3.90
>>> readout_number("CC(C)S(=O)(=O)c1ccccc1Nc1nc(Nc2ccc(N3CCC(C(=O)NCCCCCC(=O)NO)CC3)cc2)ncc1Cl")
2.88
>>> readout_number("CNC(=O)c1ccccc1Nc1nc(Nc2ccc(N3CCOCC3)cc2OC)ncc1Cl")
3.72
>>> readout_number("CC(C)S(=O)(=O)c1ccccc1Nc1nc(Nc2ccc(SCCCN3CCOCC3)cc2)ncc1Cl")
3.94
>>> readout_number("CC(C)S(=O)(=O)c1ccccc1Nc1nc(Nc2ccc(CN3CCC(C(=O)NCCCCCC(=O)NO)CC3)cc2)ncc1Cl")
3.48

Problem: Suppose we examine the compound CC(C)S(=O)(=O)c1ccccc1Nc1nc(Nc2ccc(CN3CCC(C(=O)NCCO)CC3)cc2)ncc1Cl ; what log10(IC50 at 72 h) value has been reported?
Solution: 2.99

Problem: Another compound to look at: COC(=O)CCCCCNC(=O)C1CCN(c2ccc(Nc3ncc(Cl)c(Nc4ccccc4S(=O)(=O)C(C)C)n3)cc2)CC1
Solution: 3.30

---

Here the recorded pIC50 is given for each entry.
System: KM3/BTZ
Test: cells
Conditions: Homo sapiens, 72 h
Description: Antiproliferative activity against bortezomib- resistant human KM3/BTZ cells assessed as inhibition of cell growth incubated for 72 hrs by CCK-8 assay
Scale explanation: pIC50 corresponds to minus log10 of a concentration expressed in moles per litre.

Here's what some known entries look like.
>>> readout_number("CC(C)S(=O)(=O)c1ccccc1Nc1nc(Nc2ccc(CN3CCSCC3)cc2)ncc1Cl")
5.60
>>> readout_number("CC(C)S(=O)(=O)c1ccccc1Nc1nc(Nc2ccc(CN3CCC(CO)CC3)cc2)ncc1Cl")
6.80
>>> readout_number("CC(C)S(=O)(=O)c1ccccc1Nc1nc(Nc2ccc(NC(=O)CN3CCC(C(=O)O)CC3)cc2)ncc1Cl")
5.67

Problem: What measured pIC50 goes with CNC(=O)c1ccccc1Nc1nc(Nc2ccc(N3CCOCC3)cc2OC)ncc1Cl ?
Solution: 5.36

Problem: Another: CC(C)S(=O)(=O)c1ccccc1Nc1nc(Nc2ccc(N3CCC(C(=O)O)CC3)cc2)ncc1Cl
Solution: 5.43

Problem: // query: CC(C)S(=O)(=O)c1ccccc1Nc1nc(Nc2ccc(CN3CCC(C(=O)O)CC3)cc2)ncc1Cl
Solution: 5.99

Problem: // query: CC(C)S(=O)(=O)c1ccccc1Nc1nc(Nc2ccc(OCC(=O)N3CCOCC3)cc2)ncc1Cl
Solution: 5.79

Problem: Quick one: CC(C)S(=O)(=O)c1ccccc1Nc1nc(Nc2ccc(CN3CCC(C(=O)NCCO)CC3)cc2)ncc1Cl
Solution: 6.30

Problem: Same question for CCC(C)C(CO)NC(=O)C1CCN(Cc2ccc(Nc3ncc(Cl)c(Nc4ccccc4S(=O)(=O)C(C)C)n3)cc2)CC1 (centres undefined) please.
Solution: 5.59
